Here we gather pKi data for Cannabinoid receptor 1 (Mus musculus) reported by several publications.
Quick note: pKi means taking -log10 of the concentration in moles per liter.

1) N/C(=N/C(=N\S(=O)(=O)c1ccc(Cl)cc1)N1CC(c2ccccc2)C(c2ccc(Cl)cc2)=N1)c1ccccn1 (stereo not drawn) : 7.59

**Q:** Give the measured pKi of C/C(N)=N\C(=N/S(=O)(=O)c1ccc(C(C)C)cc1)N1CC(c2ccccc2)C(c2ccc(Cl)cc2)=N1 (stereo not drawn) .
**A:** 8.00

**Q:** What about Cc1c(/C(F)=C/C2CCCCC2)nn(-c2ccc(Cl)cc2Cl)c1-c1ccc(Cl)cc1 ?
**A:** 7.59

**Q:** What about N/C(=N/C(=N\S(=O)(=O)c1ccc(Cl)cc1)N1CC(c2ccccc2)C(c2ccc(Cl)cc2)=N1)c1ccc(Cl)cc1 (stereo not drawn) ?
**A:** 8.00

**Q:** What about O=C(/C=C/C=C/C=C/c1cccs1)N1CCCCC1 ?
**A:** 5.39

**Q:** What about Cc1c(C(=O)Nc2cccc(S(F)(F)(F)(F)F)c2)nn(-c2cc(Cl)cc(Cl)c2)c1-c1ccc(Cl)cc1 ?
**A:** 7.95

**Q:** What about Cc1c(C(=O)Nc2cccc(C(F)(F)F)c2)nn(-c2cc(Cl)cc(Cl)c2)c1-c1ccc(Cl)cc1 ?
**A:** 7.58

**Q:** What about Cc1c(C(NN2CCCCC2)C(F)(F)F)nn(-c2ccc(Cl)cc2Cl)c1-c1ccc(Cl)cc1 (racemic) ?
**A:** 6.54
